Hey, just so you know, these numbers are from patent US8853230B2.

- assayed-system: JAK1 (Homo sapiens)
- Construct: 5 μl of catalytic domain recombinant Kinase enzyme+Tyr peptide substrate (Invitrogen, Calif.)
- Sequence (P23458 875-1153 limits assumed): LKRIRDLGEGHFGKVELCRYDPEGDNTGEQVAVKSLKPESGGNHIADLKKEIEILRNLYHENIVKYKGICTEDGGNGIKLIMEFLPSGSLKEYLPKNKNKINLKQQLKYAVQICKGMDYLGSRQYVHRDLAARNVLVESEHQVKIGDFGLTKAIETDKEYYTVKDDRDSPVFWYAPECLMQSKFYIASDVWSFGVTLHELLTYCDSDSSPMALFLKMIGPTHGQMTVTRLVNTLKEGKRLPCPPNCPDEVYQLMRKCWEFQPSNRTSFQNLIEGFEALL
- assay-info: Z'-LYTE kinase assay, JAK1 tyrosine phosphorylation activity
- cond: read-out: JAK 1 IC50
reported-property: IC50

Field: IC50 (JAK1 (Homo sapiens)). Entry: CN(C)C(=O)Nc1cc(Nc2ncc(C(N)=O)c(NCc3ccccc3)n2)ccc1Cl [Example 196]
100 to 1000 nM

Can you look up IC50 on JAK1 (Homo sapiens) for NC(=O)c1cnc(Nc2cccc(N(C(=O)C3CC3)C3CC3)c2)nc1NCc1ccccc1 [Example 151] ?
> 1000 nM

# query: IC50 | item COC[C@H]1CCCN1C(=O)Nc1cccc(Nc2ncc(C(N)=O)c(N[C@H](C)c3ccccc3)n2)c1 [Example 149] | system: JAK1 (Homo sapiens)
100 to 1000 nM

---
Requested read-out IC50, target or system JAK1 (Homo sapiens), entry CC(=O)Nc1cccc(Nc2cc(NCc3cccc(F)c3F)c(C(N)=O)cn2)c1 [Example 336]
100 to 1000 nM

Checklist item: IC50 tested on JAK1 (Homo sapiens), entry CNC(=O)Nc1cccc(Nc2ncc(C(N)=O)c(NC3CCCC3)n2)c1 [Example 34] , value?
10 to 100 nM

IC50 of NC(=O)c1cnc(Nc2cccc(NC(=O)[C@@H]3CCCO3)c2)nc1NCc1ccccc1 [Example 206] on JAK1 (Homo sapiens)?
10 to 100 nM

Form entry - test system: JAK1 (Homo sapiens); read-out: IC50; molecule: COC(=O)Nc1cc(Nc2ncc(C(N)=O)c(N[C@H](C)c3ccccc3)n2)ccc1Cl [Example 129]
> 1000 nM
